Tested On: Polyunsaturated fatty acid 5-lipoxygenase (Rattus norvegicus)
Assay Comment: In vitro inhibition of RBL-1 5-lipoxygenase; Value ranges from 1.8-5.7
Assay type: cell-based

[
  {
    "Query Smiles": "Cc1ccc(O)c2[nH]c(-c3ccco3)nc12",
    "Tested On": "Polyunsaturated fatty acid 5-lipoxygenase (Rattus norvegicus)",
    "IC50 [µM]": 3.3
  }
]

----------
Tested On: Polyunsaturated fatty acid 5-lipoxygenase (Rattus norvegicus, UniProt P12527)
Assay Comment: In vitro inhibition of RBL-1 5-lipoxygenase; Value ranges from 1.3-2.8
Format: cell-based

[
  {
    "Query Smiles": "Cc1ccc(O)c2[nH]c(CCc3ccccc3)nc12",
    "IC50": "2100 nM"
  }
]

----------
Tested On: Polyunsaturated fatty acid 5-lipoxygenase (Rattus norvegicus, UniProt P12527)
Sequence (P12527 whole entry): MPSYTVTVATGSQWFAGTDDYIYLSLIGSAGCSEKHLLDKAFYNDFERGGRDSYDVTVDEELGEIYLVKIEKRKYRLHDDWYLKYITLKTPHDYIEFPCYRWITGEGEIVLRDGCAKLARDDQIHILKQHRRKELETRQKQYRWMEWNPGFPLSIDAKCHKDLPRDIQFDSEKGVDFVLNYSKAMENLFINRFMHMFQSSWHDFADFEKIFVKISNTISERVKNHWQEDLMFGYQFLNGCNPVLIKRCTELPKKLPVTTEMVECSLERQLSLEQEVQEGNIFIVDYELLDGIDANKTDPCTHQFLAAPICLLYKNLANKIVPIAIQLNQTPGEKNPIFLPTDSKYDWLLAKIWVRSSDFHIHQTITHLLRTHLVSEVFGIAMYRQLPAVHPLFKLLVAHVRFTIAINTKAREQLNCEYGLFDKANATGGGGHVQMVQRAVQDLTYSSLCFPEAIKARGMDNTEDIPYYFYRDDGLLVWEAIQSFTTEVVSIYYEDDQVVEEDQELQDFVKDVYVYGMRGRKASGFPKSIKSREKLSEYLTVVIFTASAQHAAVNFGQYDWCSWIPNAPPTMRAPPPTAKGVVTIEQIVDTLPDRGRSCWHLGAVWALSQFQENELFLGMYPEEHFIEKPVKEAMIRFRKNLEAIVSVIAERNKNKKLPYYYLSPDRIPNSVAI
Assay Comment: In vitro inhibition of RBL-1 5-lipoxygenase; Value ranges from 7.5-11.8
Format: cell-based

[
  {
    "Query Smiles": "COc1cc(Cc2nc3c(C)ccc(O)c3[nH]2)cc(OC)c1OC.Cl",
    "IC50 [µM]": 9.7
  }
]

----------
Tested On: Polyunsaturated fatty acid 5-lipoxygenase (Rattus norvegicus)
Sequence (P12527 whole entry): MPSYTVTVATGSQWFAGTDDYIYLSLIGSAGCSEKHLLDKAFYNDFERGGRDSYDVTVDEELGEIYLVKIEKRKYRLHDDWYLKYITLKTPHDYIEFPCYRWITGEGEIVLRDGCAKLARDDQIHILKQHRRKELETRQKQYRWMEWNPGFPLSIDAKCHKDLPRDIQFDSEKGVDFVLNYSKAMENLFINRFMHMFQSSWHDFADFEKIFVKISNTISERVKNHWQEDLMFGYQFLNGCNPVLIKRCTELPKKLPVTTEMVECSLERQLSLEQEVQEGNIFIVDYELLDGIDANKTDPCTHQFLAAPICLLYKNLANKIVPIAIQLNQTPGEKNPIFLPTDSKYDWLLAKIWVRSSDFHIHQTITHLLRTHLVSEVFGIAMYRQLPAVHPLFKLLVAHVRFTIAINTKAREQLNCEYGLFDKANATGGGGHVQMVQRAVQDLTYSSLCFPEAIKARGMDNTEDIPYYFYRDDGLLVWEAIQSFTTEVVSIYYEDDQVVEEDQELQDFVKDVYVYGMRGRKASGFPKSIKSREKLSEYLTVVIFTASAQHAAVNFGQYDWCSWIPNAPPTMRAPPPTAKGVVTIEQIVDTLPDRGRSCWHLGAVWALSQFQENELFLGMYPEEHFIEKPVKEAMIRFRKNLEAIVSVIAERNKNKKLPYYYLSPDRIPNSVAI
Assay Comment: In vitro inhibition of RBL-1 5-lipoxygenase; Value ranges from 1.1-1.6
Assay type: cell-based
pIC50: −log10 of the molar value.

[
  {
    "Query Smiles": "Cc1cc(C(C)(C)C)c(O)c2[nH]c(Cc3ccccc3)nc12",
    "pIC50": 5.89
  }
]
